protocol_summary: relative permittivity at various frequencies (dimensionless)
test_parameters: 303.15 K; 101 kPa; Liquid; Frequency=1 MHz; Parallel plate capacitor
± gives the expanded uncertainty stated by the source.
Would you mind telling me the reported relative permittivity of each entry?

Assign relative permittivity to the following record: NC=O [formamide]
106.14 ± 0.64

Assign relative permittivity to the following record: CN(C)C=O [dimethylformamide]
36.55 ± 0.22

Assign relative permittivity to the following record: O [water]
76.53 ± 0.46

Assign relative permittivity to the following record: C1COCCO1 [1,4-dioxane]
2.26 ± 0.014
